Molecular target: human σ1 receptor (Homo sapiens, UniProt Q99720)
Sequence (Q99720 whole entry): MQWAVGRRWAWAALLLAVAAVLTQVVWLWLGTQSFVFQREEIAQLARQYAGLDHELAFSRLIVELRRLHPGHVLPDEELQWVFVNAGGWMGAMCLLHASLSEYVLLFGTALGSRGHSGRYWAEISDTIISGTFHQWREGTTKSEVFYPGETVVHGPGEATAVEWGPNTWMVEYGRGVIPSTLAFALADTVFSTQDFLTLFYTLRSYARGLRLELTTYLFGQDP
Test: biochemical
Assay type: binding
Details: read-out: μ and σ1 dual binding
pKi: −log10 of the molar value. Counter-ions that a name gives are not always drawn.
pKi values by entry

The following compounds have reported results that may help.
compound	observedValue
CNC(=O)c1ccc(CCN2CCC3(CC2)CN(c2ccccc2)C(=O)C(C)O3)cc1 (centres unmarked) [Example 274, hydrochloride]	> 6.30
C[C@@H]1OC2(CCN(CCc3ccccc3)CC2)CN(c2ccccc2)C1=O [Example 10b]	> 7.00
O=C1N(c2cccnc2C(F)(F)F)CC2(CCN(CCc3ccccc3F)CC2)OC12CC2	> 6.30
O=C1N(c2ccccc2)CC2(CCN(CCc3ccccn3)CC2)OC12CC2	> 7.00
CC1OC2(CCN(CCc3ccccc3)CC2)CN(CC(=O)N2CCOCC2)C1=O (centres unmarked) [Example 170, hydrochloride]	< 6.30

Any idea what pKi was measured for `O=C1COC2(CCN(CCc3ccccc3)CC2)CN1c1ccccc1F` ?
> 6.30

And for CS(=O)(=O)Nc1cccc(CCN2CCC3(CC2)CN(c2ccccc2)C(=O)C2(CC2)O3)c1 [Example 260, hydrochloride] ?
> 6.30

Also need CC1OC2(CCN(CCc3cn[nH]c3)CC2)CN(c2ccccc2)C1=O (centres unmarked) , thanks.
< 6.30

---

Target: human σ1 receptor (Homo sapiens, UniProt Q99720)
Assay: biochemical
Assay type: binding
Conditions: read-out: μ and σ1 dual binding
Structures can show the parent of a compound that is named as a salt.
assayReadout: Ki

molecule	assayReadout	observedValue
CC1OC2(CCN(CCn3ccc([N+](=O)[O-])n3)CC2)CN(c2ccccc2)C1=O (centres unmarked)	Ki	> 500 nM
CC1OC2(CCN(CCc3ccccc3)CC2)CN(c2ncccc2C(F)(F)F)C1=O (centres unmarked)	Ki	< 500 nM
c1ccc(CCN2CCC3(CC2)CN(Cc2cscn2)CCO3)cc1 [Example 325, dihydrochloride]	Ki	< 500 nM
COc1ccccc1N1CC2(CCN(CCc3ccccc3)CC2)OC(C)C1=O (centres unmarked) [Example 206, hydrochloride]	Ki	< 100 nM
CC1OC2(CCN(CCc3ccccc3F)CC2)CN(c2cnccc2C(F)(F)F)C1=O (centres unmarked) [Example 126, hydrochloride]	Ki	< 100 nM

Look up Ki for this molecule: CCC1OC2(CCN(CCc3ccccc3)CC2)CN(c2ccccc2)C1=O (centres unmarked)
< 100 nM

Please do the same for `COc1ccccc1CCN1CCC2(CC1)CN(Cc1ccccn1)C(=O)CO2` as well.
< 500 nM

Also check CC1OC2(CCN(CCc3cccnc3)CC2)CN(c2ccccc2)C1=O (centres unmarked)
< 500 nM

---

Target: UniProt:Q99720
Experiment: biochemical
Assay type: binding
pKi: −log10 of the molar value. Where a name gives a salt, the structure may show the parent alone.
assayReadout: pKi

molecule	assayReadout	observedValue
OCCC1CN(c2ccccc2)CC2(CCN(CCc3ccccc3)CC2)O1 (centres unmarked) [Example 323, hydrochloride]	pKi	> 6.30

Can you look up the measured pKi of COc1cccc(CCN2CCC3(CC2)CN(c2ccccc2)C(=O)C(C)O3)n1 (centres unmarked) [Example 102, hydrochloride] for me?
> 6.30

Also CC1OC2(CCN(CCn3ccc4ccccc43)CC2)CN(c2ccccc2)C1=O (centres unmarked) [Example 62, hydrochloride] ?
> 7.00

Record: COc1cccc(CCN2CCC3(CC2)CN(c2ccccc2F)C(=O)C(C)O3)c1 (centres unmarked) [Example 83, hydrochloride]
> 7.00

For CC1OC2(CCN(CCc3ccccc3)CC2)CN(c2cscn2)C1=O (centres unmarked) [Example 88, hydrochloride] then?
> 6.30

Try this molecule next: CC1OC2(CCN(CCCc3ccccc3)CC2)CN(c2ccccc2)C1=O (centres unmarked) [Example 60, hydrochloride]
> 6.30

Field entry: CC1OC2(CCN(CCc3ccc(Cl)cn3)CC2)CN(c2ccccc2)C1=O (centres unmarked) [Example 38, hydrochloride]
> 6.30

Also need CC1OC2(CCN(CCc3cccc(F)n3)CC2)CN(c2ccccc2F)C1=O (centres unmarked) [Example 89, hydrochloride] , thanks.
> 6.30

---

Biological target: human σ1 receptor (Homo sapiens)
Assay: biochemical
Format: binding
Conditions: read-out: μ and σ1 dual binding
pKi: −log10 of the molar value. Structures can show the parent of a compound that is named as a salt.
assayReadout: pKi

Use the examples below as a reference point.
molecule	pKi
CC1OC2(CCN(CCc3ccc(F)cc3)CC2)CN(c2ccccc2)C1=O (centres unmarked) [Example 55, hydrochloride]	> 7.00
CC1OC2(CCN(CCN3CCCC3=O)CC2)CN(c2ccccc2)C1=O (centres unmarked) [Example 146]	< 6.30
CC1OC2(CCN(CCc3ccccc3)CC2)CN(c2cncc(C(F)(F)F)c2)C1=O (centres unmarked) [Example 217, hydrochloride]	> 6.30
CC(=O)Nc1cccc(CCN2CCC3(CC2)CN(Cc2ccccc2)CCO3)c1 [Example 339]	> 7.00
COc1ccc(CN2CC3(CCN(CCc4ccccc4)CC3)OC3(CC3)C2=O)cc1 [Example 109, hydrochloride]	> 7.00

Given Nc1nc(CCN2CCC3(CC2)CN(Cc2ccc(C(F)(F)F)cn2)C(=O)CO3)cs1 [Example 304] , state its recorded pKi.
> 6.30

Follow-up item: CN(C)C(=O)CCN1CC2(CCN(CCc3ccccc3)CC2)OC2(CC2)C1=O [Example 182, hydrochloride]
< 6.30

Next entry: CC1OC2(CCN(CCc3ccccc3F)CC2)CN(c2ncccc2C(F)(F)F)C1=O (centres unmarked) [Example 221]
> 6.30

---

Target: human σ1 receptor (Homo sapiens, UniProt Q99720)
Assay: biochemical
Format: binding
Conditions: read-out: μ and σ1 dual binding
Counter-ions that a name gives are not always drawn.
// reported Ki per item

Record excerpt, results attached:
compound	target	assayReadout	observedValue
CC1OC2(CCN(CC3CC3)CC2)CN(c2ccccc2F)C1=O (centres unmarked) [Example 82, hydrochloride]	human σ1 receptor (Homo sapiens, UniProt Q99720)	Ki	> 500 nM
CC1OC2(CCN(CCc3csc(NC(=O)OC(C)(C)C)n3)CC2)CN(c2cnccc2C(F)(F)F)C1=O (centres unmarked)	human σ1 receptor (Homo sapiens, UniProt Q99720)	Ki	> 500 nM
O=C1COC2(CCN(CCc3ccccc3)CC2)CN1Cc1cscn1 [Example 167, hydrochloride]	human σ1 receptor (Homo sapiens, UniProt Q99720)	Ki	< 100 nM
CC1OC2(CCN(CCc3ccccc3)CC2)CN(Cc2cscn2)C1=O (centres unmarked)	human σ1 receptor (Homo sapiens, UniProt Q99720)	Ki	< 100 nM

Lab note: next compound to report on.
So what does the record say about Ki for CC1OC2(CCN(CCc3ccc(C(=O)N(C)C)cc3)CC2)CN(c2ccccc2)C1=O (centres unmarked) [Example 273, hydrochloride] ?
> 500 nM

---

Let's look at some molecules and their measured Ki.
Target: human σ1 receptor (Homo sapiens, UniProt Q99720)
Experiment: biochemical
Type: binding
Conditions: read-out: μ and σ1 dual binding
Structures can show the parent of a compound that is named as a salt.

Some solved cases for reference:
molecule	Ki
CC(C)C1OC2(CCN(CCc3ccccc3)CC2)CN(c2ccccc2)C1=O (stereo not drawn) [Example 17, hydrochloride]	< 0.1 µM
CC1OC2(CCN(CCc3ccccc3F)CC2)CN(c2cccnc2C(F)(F)F)C1=O (stereo not drawn) [Example 130, dihydrochloride]	< 0.5 µM
CC1OC2(CCN(CCN3CCOCC3)CC2)CN(c2ccccc2)C1=O (stereo not drawn) [Example 65]	> 0.5 µM
Oc1cccc(N2CCOC3(CCN(CCc4ccccc4)CC3)C2)c1 [Example 316]	< 0.5 µM
CC1OC2(CCN(CCc3ccccc3)CC2)CN(c2cccnc2)C1=O (stereo not drawn) [Example 194, hydrochloride]	< 0.5 µM
CC1OC2(CCN(CCc3ccc([N+](=O)[O-])cn3)CC2)CN(c2ccccc2F)C1=O (stereo not drawn) [Example 24]	> 0.5 µM
CNS(=O)(=O)c1ccc(CCN2CCC3(CC2)CN(c2ccccc2)C(=O)C(C)O3)cc1 (stereo not drawn) [Example 107]	> 0.5 µM
O=C1N(c2ncccc2C(F)(F)F)CC2(CCN(CCc3ccccc3F)CC2)OC12CC2 [Example 220, hydrochloride]	< 0.5 µM

Next, consider the following molecule.
Reported Ki, molecule CC1OC2(CCN(CCc3ccccc3)CC2)CN(c2nccs2)C1=O (stereo not drawn) [Example 209, hydrochloride] : ____
< 0.5 µM
